biological target: human SOS1 (nucleotide exchange of K-Ras^G12C) (Homo sapiens, UniProt Q07889); test: Biochemical assay 2: K-Ras^G12C activation assay by hSOS1 at high GTP concentration (HTRF); conditions: high GTP; read-out: Assay 2 (KRAS-Activation by SOS high GTP) activity expressed as IC50
measured quantity: pIC50
When answering, recall that pIC50 equals minus log10 of the concentration in mol/L, and write that number alone.

Below: 2 compounds and their reported pIC50.
>>> result_value("COc1cc2nc(C)nc(NC(C)c3ccc(-c4ccccc4CN4CCN(C(=O)OC(C)(C)C)CC4)s3)c2cc1OC (centres unmarked) [Example 306]")
5.38
>>> result_value("COc1cc2nc(C)nc(NC(C)c3ccc(-c4ccc(CN)o4)s3)c2cc1OC (centres unmarked) [Example 275]")
5.53

# query: pIC50 | item Cc1nc(N[C@H](C)c2ccc(F)cc2)c2cc(N=S(C)(C)=O)ccc2n1 [Example 32] | system: human SOS1 (nucleotide exchange of K-Ras^G12C) (Homo sapiens, UniProt Q07889)
5.85

# query: pIC50 | item COc1cc2nc(C)nc(NC(C)c3ccc(-c4ccc(F)cc4CN)s3)c2cc1OC (centres unmarked) [Example 234] | system: human SOS1 (nucleotide exchange of K-Ras^G12C) (Homo sapiens, UniProt Q07889)
7.18

# query: pIC50 | item COc1cc2nc(C)nc(N[C@H](C)c3cccc(-n4ccnc4)c3)c2cc1OC [Example 340] | system: human SOS1 (nucleotide exchange of K-Ras^G12C) (Homo sapiens, UniProt Q07889)
6.04

# query: pIC50 | item COc1cc2nc(C)nc(N[C@H](C)c3ccc(C#N)cc3)c2cc1OC [Example 189] | system: human SOS1 (nucleotide exchange of K-Ras^G12C) (Homo sapiens, UniProt Q07889)
5.93

# query: pIC50 | item COc1cc2nc(C)nc(N[C@H](C)c3cccc(-c4ccc(F)cc4CN)c3)c2cc1OC [Example 274] | system: human SOS1 (nucleotide exchange of K-Ras^G12C) (Homo sapiens, UniProt Q07889)
6.85

# query: pIC50 | item COc1cc2nc(C)nc(NC(C)c3ccc(-c4ccccc4[C@@H](C)N)s3)c2cc1OC (stereo in doubt) [Example 359] | system: human SOS1 (nucleotide exchange of K-Ras^G12C) (Homo sapiens, UniProt Q07889)
6.70
